Some sequences, each annotated with its measured pre-steady-state target cleavage rate.
System: MILI (PIWIL2) piRISC loaded with L1MC piRNA (26 nt);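 note: 1 nM active piRISC with 0.1 nM target library at 33 °C single turnover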
experiment: pre-steady-state target cleavage rate (min^-1); guide: L1MC piRNA 5'p-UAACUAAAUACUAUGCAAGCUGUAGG; higher = faster piRNA-guided slicing of the target
test conditions: auxiliary factor: 500 nM mouse GTSF1
reported endpoint: pre-steady-state target cleavage rate

INSERT INTO measurements (chain, observed_result) VALUES
  ('UCCUGGAUGUGCUUGCAUAGUAUGUAGUUA', 0.134),
  ('UCCUGGAUGAGCUUGCAUUGUAUUUAGAAA', 0.0178),
  ('UCCUGGAUGUCCUUGCAUUCUAUUUAGUUA', 0.00856),
  ('UCCUGGUACAGCUUGCAUAGUAAAAAGUAA', 0.031),
  ('UCCUGGUACUGCUUGCAAAGUAUUUAGUUA', 0.0806),
  ('UCCUGGAUGAGCUUGCAUAGUUAUUAGUUA', 0.00731),
  ('UCCUCCUACAGCUUGCAUUGUAUUUAGAAA', 0.0778),
  ('UCCUGGAUGUGCUUGCAUAGUAUUUGAGUUA', 0.123),
  ('UCCUGGUACAGCUUGCAAAGUAUUUAGUUA', 0.11),
  ('UCCUCCUACAGCUAGCAUAGUAUUUAGUUA', 0.27),
  ('UCCUGGAUGAGCUUGACAUAGUAUUUAGUUA', 0.0929),
  ('UCCUGGAUCAGCUUCGUUAGUAUUUAGUUA', 0.0434),
  ('UCCUGGAUCAGCUUGCAAUGUAUUUUCAAA', 0.00576),
  ('UCCUGCUACAGCUUGGAUAGUAUUUACUUA', 0.00864),
  ('UCCUGGAUGUGCUUGCAUAGUAUUUAGAUUA', 0.0647),
  ('UCCUGGAUGUGCUUGCAUAGUAUUAUGUUA', 0.0376),
  ('UCCUCCUACAGGUUGCAUAGUAUUUUGUUA', 0.137),
  ('UCCUCCUACAGCUACCAUAGUAUUUACAAA', 0.0179),
  ('UCCUGGAUCAGCUGGCAUAGUAUUUAGUUA', 0.253),
  ('UCCUCGUACAGCUUGCAAAGUAUUUAGUUA', 0.149),
  ('UCCUGGAUGUCGUCGCAUAGUAUUUAGUUA', 0.0893),
  ('UCCUGCUACAGCAAGCAUAGUAUUUAGUUA', 0.325),
  ('UCCUGGAACCGCUUGCAUAGUAUUUAGUUA', 0.265),
  ('UCCUGGUACUGCUAGCAUAGUAUUUAGUUA', 0.174),
  ('UCCUGGAUCAGCUUGUCAUAGUAUUUAGUUA', 0.21),
  ('UCCUGCUACUCGUUGCAUAGUAUUUAGAAA', 0.179),
  ('UCCUGGAUGAGCUAGGAUAGUAUUUAGUUA', 0.131),
  ('UCCUGGUUGAGCUUGCAUAGUAUUUAGUUA', 0.179),
  ('UCCUGGAUCUGCUUGCAUAGUAUUUAGUAA', 0.22),
  ('UCCUCCUAGUGCUUGCAUAGUAUUUACAAA', 0.0188),
  ('UCCUGGAUGUCCUUGCAUAGUAAUAAGUUA', 0.0367),
  ('UCCUGGAAGAGCUUGCAUAGUAUUUAGUAA', 0.201),
  ('UCCUGGAACAGCUUGCAUAGUAUCUAGUUA', 0.213),
  ('UCCUGGAUGAGCUUGCAUAGUACUUUAGUUA', 0.0613);

---

Test system: EfPiwi piRISC loaded with L1MC piRNA (26 nt)
experiment: pre-steady-state target cleavage rate (min^-1); auxiliary factor: 500 nM Ephydatia muelleri Gtsf1; guide: L1MC piRNA 5'p-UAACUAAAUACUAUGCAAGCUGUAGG; higher = faster piRNA-guided slicing of the target
Mark Met for reported pre-steady-state target cleavage rate of 0.004 or greater; mark Not met for anything smaller.

INSERT INTO assay_data (chain, experimental_target, label) VALUES
  ('UCCUGGAACAGCAUGCAUAGUAAUUAGUUA', 'EfPiwi piRISC loaded with L1MC piRNA (26 nt)', 'Met'),
  ('UCCUGGAUCACCUUGCAUAGUAUUAAGUUA', 'EfPiwi piRISC loaded with L1MC piRNA (26 nt)', 'Met'),
  ('UCCUGCAACUGCUUGCAUAGUAUUUAGUUA', 'EfPiwi piRISC loaded with L1MC piRNA (26 nt)', 'Met'),
  ('UCCUGCUACAGCUUGCAUAGAUUUAGUUA', 'EfPiwi piRISC loaded with L1MC piRNA (26 nt)', 'Not met'),
  ('UCCUCCUUGAGCUUGCAUAGUAUUUACAAA', 'EfPiwi piRISC loaded with L1MC piRNA (26 nt)', 'Not met'),
  ('UCCUGGAUGUCCUUGCAUAGUAUGUAGUUA', 'EfPiwi piRISC loaded with L1MC piRNA (26 nt)', 'Not met'),
  ('UCCUCCUACAGCUUAGCAUAGUAUUUAGUUA', 'EfPiwi piRISC loaded with L1MC piRNA (26 nt)', 'Met'),
  ('UCCUCCUACAGCUUGCAUAGUAUUUACAUA', 'EfPiwi piRISC loaded with L1MC piRNA (26 nt)', 'Met'),
  ('UCCUGGAUGAGCAUGCAUAGUAUUUAGAAA', 'EfPiwi piRISC loaded with L1MC piRNA (26 nt)', 'Not met');

---

Test system: EfPiwi piRISC loaded with L1MC piRNA (26 nt)
experiment: pre-steady-state target cleavage rate (min^-1); auxiliary factor: 500 nM Ephydatia muelleri Gtsf1; guide: L1MC piRNA 5'p-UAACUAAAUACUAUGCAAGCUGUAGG; higher = faster piRNA-guided slicing of the target
reported endpoint: pre-steady-state target cleavage rate

INSERT INTO measurements (chain, reported_endpoint, observed_result) VALUES
  ('UCCUGCUACAGCUUCCAUUGUAUUUAGUUA', 'pre-steady-state target cleavage rate', 0.00266),
  ('UCCUCCUACGGCUUGCAUAGUAUUUAGUUA', 'pre-steady-state target cleavage rate', 0.0667),
  ('UCCUGGUUCUGCUUGCAUAGUAUUUAGUUA', 'pre-steady-state target cleavage rate', 0.0355),
  ('UCCUGGAUGAGCUAGCAUAGUUUUUAGUUA', 'pre-steady-state target cleavage rate', 0.00278),
  ('UCCUGCUACAGCUUGCAUAUAUUUAGUUA', 'pre-steady-state target cleavage rate', 0.00528),
  ('UCCUGGAACAGCUUGCAAGUAUUUAGUUA', 'pre-steady-state target cleavage rate', 0.00284),
  ('UCCUGGUACAGCUUGCAUAGUAUUAAGUUA', 'pre-steady-state target cleavage rate', 0.00521),
  ('UCCUGGUAGUGCUUGCAUAGUAUUUAGUAA', 'pre-steady-state target cleavage rate', 0.00326),
  ('UCCUGGUACAGCAUGCAUAGUUUUUAGUUA', 'pre-steady-state target cleavage rate', 0.0046),
  ('UCCUCCUACAGCUUGCAUAGUAUUUAGUGA', 'pre-steady-state target cleavage rate', 0.00553),
  ('UCCUGGUACACCUUGCAUAGUAUUUAGUAA', 'pre-steady-state target cleavage rate', 0.00351),
  ('UCCUGGAUCAGCUUGCAUAGUAUUUAGAUUA', 'pre-steady-state target cleavage rate', 0.00483),
  ('UCCUGGUUGUGCUUGCAUAGUAUUUAGUAA', 'pre-steady-state target cleavage rate', 0.00401),
  ('UCCUGGAUCAGCUUGCAUAGUAUUUAGUUU [g2:g22:cont:t1U]', 'pre-steady-state target cleavage rate', 0.121),
  ('UCCUGCUACAGCUUGCUUUGUAUUUAGUUA', 'pre-steady-state target cleavage rate', 0.00538),
  ('UCCUGGAACUGCUUGCAUACUAUUUAGUUA', 'pre-steady-state target cleavage rate', 0.0046),
  ('UCCUGCUACAGGUUGCAUAGUAUUUAGUUA', 'pre-steady-state target cleavage rate', 0.0242),
  ('UCCUGGAUGUGCUUGACAUAGUAUUUAGUUA', 'pre-steady-state target cleavage rate', 0.0797),
  ('UCCUGGAUGAGCUUGCAUACUAUUUAGUAA', 'pre-steady-state target cleavage rate', 0.00227);

---

In this section, each of the sequences is paired with its reported pre-steady-state target cleavage rate.
System: MILI (PIWIL2) piRISC loaded with piRNA #1 (26 nt);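 note: 1 nM active piRISC with 0.1 nM target library at 33 °C single turnover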
experiment: pre-steady-state target cleavage rate (min^-1); guide: piRNA #1 5'p-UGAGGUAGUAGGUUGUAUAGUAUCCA; MIWI and MILI are mouse PIWI proteins and EfPiwi is from a freshwater sponge; tags in brackets are library labels; higher = faster piRNA-guided slicing of the target
test conditions: auxiliary factor: 500 nM mouse GTSF1
reported endpoint: pre-steady-state target cleavage rate

INSERT INTO results (chain, reported_endpoint, observed_result) VALUES
  ('GGAGACCUAUGAUAUGUUGCUUGAACCUCA', 'pre-steady-state target cleavage rate', '< 0.0001'),
  ('GGAGACCUAUGAUAUGUUUCUACUACCUCA', 'pre-steady-state target cleavage rate', '< 0.0001'),
  ('GGAGACCAUACUAUACAACGAUCUACCUCA', 'pre-steady-state target cleavage rate', '< 0.0001');
